Hello, the source for this data is patent US6348461B1, in case you need it.

Measured melting point, listed per entry for reference.
Where a name gives a salt, the structure may show the parent alone.

O=C(O)c1nc2cc(N3CCN(Cc4ccccc4)CC3)c([N+](=O)[O-])cc2[nH]c1=O [Example 60] = 278 to 280 °C
O=C(O)c1nc2cc(Oc3ccccc3)c([N+](=O)[O-])cc2[nH]c1=O [Example 62] = 154 to 156 °C (dec.)

Asked: For the molecule shown here, O=C(NCc1ccn(-c2cc3nc(C(=O)O)c(=O)[nH]c3cc2C(F)(F)F)c1)Nc1ccccc1 [Example 188] , give the reported melting point.
Given back: > 300 °C

Asked: For the molecule shown here, O=C(O)c1nc2cc(N3CCC(O)CC3)c([N+](=O)[O-])cc2[nH]c1=O [Example 61] , give the reported melting point.
Given back: 253 to 255 °C

Asked: For the molecule shown here, O=C(c1nc2cc(N3CCOCC3)c([N+](=O)[O-])cc2[nH]c1=O)N1CCOCC1 [Example 138] , give the reported melting point.
Given back: 298 to 299 °C

Asked: For the molecule shown here, Cn1c(=O)c(C(=O)O)nc2cc(F)c([N+](=O)[O-])cc21 [Example 162] , give the reported melting point.
Given back: 173 to 175 °C

Asked: For the molecule shown here, O=C(NCc1cn(-c2cc3nc(C(=O)O)c(=O)[nH]c3cc2[N+](=O)[O-])cn1)Nc1ccc(C(=O)O)cc1 (as salt: salt) [Example 119] , give the reported melting point.
Given back: 300 °C (dec.)

Asked: For the molecule shown here, O=C(Nc1cccc(C(=O)O)c1)OCc1cn(-c2cc3nc(C(=O)O)c(=O)[nH]c3cc2[N+](=O)[O-])cn1 [Example 116] , give the reported melting point.
Given back: 272 to 274 °C (dec.)

Asked: For the molecule shown here, CCOC(=O)c1ccc(NC(=O)OCc2cn(-c3cc4nc(C(=O)O)c(=O)[nH]c4cc3[N+](=O)[O-])ccc2=O)cc1 [Example 306] , give the reported melting point.
Given back: 201 to 203 °C (dec.)

Asked: For the molecule shown here, O=C(O)c1nc2cc(N3CCOCC3)c([N+](=O)[O-])cc2[nH]c1=O [Example 35] , give the reported melting point.
Given back: 213.5 to 214.5 °C

Asked: For the molecule shown here, O=C(Nc1ccccc1)Nc1cn(-c2cc3nc(C(=O)O)c(=O)[nH]c3cc2[N+](=O)[O-])ccc1=O [Example 129] , give the reported melting point.
Given back: 282 to 284 °C (dec.)

Asked: For the molecule shown here, O=C(NCc1ccn(-c2cc3nc(C(=O)O)c(=O)[nH]c3cc2C(F)(F)F)c1)Nc1ccc(C(=O)O)cc1F [Example 80] , give the reported melting point.
Given back: 249 to 251 °C (dec.)

Asked: For the molecule shown here, COc1ccccc1N1CCN(c2cc3nc(C(=O)O)c(=O)[nH]c3cc2[N+](=O)[O-])CC1 [Example 59] , give the reported melting point.
Given back: 204 to 206 °C

Asked: For the molecule shown here, O=C(Nc1ccccc1C(F)(F)F)OCc1cn(-c2cc3nc(C(=O)O)c(=O)[nH]c3cc2[N+](=O)[O-])cn1 [Example 101] , give the reported melting point.
Given back: 230 to 232 °C (dec.)

Asked: For the molecule shown here, O=C(NCc1ccn(-c2cc3nc(C(=O)O)c(=O)[nH]c3cc2C(F)(F)F)c1)Nc1ccc(Br)cc1 [Example 185] , give the reported melting point.
Given back: 196 to 198 °C (dec.)
